molecular target: human FPR1 (Homo sapiens (Human), UniProt P21462); assay: FPR1 cyclic adenosine monophosphate (cAMP) assay; assay type: cell-based; conditions: CHO cells overexpressing human FPR1; forskolin 10 μM, IBMX 200 μM; inhibition of cAMP production, HTRF; read-out: hFPR1 cAMP EC50
Sequence (P21462 whole entry): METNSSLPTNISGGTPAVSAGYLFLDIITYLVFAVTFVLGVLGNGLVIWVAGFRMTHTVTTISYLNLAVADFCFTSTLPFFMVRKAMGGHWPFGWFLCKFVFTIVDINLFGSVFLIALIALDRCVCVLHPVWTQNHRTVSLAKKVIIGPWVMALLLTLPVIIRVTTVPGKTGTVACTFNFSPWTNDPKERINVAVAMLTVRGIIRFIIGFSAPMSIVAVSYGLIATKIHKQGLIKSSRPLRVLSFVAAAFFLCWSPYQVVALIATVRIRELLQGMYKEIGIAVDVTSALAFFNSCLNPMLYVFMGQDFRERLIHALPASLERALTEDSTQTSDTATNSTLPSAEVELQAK
# label = fulfilled if EC50 < 2 nM else not fulfilled

Here are 4 compounds together with their reported answers.
{"Compound": "COc1cc(F)c([C@H]2[C@H](NC(=O)NC3CCc4cc(OC)ccc4C3(C)C)C(=O)N(c3ncccc3C(F)(F)F)[C@H]2C)c(F)c1 (stereo partly drawn)", "Assigned class": "not fulfilled"}
{"Compound": "COc1cc(F)c([C@@H]2CN(c3nccc(NC4CCOC4)c3C(F)(F)F)C(=O)[C@H]2NC(=O)N[C@H]2CC[C@H](C(F)F)CC2)c(F)c1 (single isomer, unassigned) [Example 100]", "Assigned class": "not fulfilled"}
{"Compound": "CCn1cccc(N2C[C@@H](c3c(F)cc(OC)cc3F)[C@H](NC(=O)NC3CCc4cc(OC)ccc4C3)C2=O)c1=O (stereo partly drawn) [Example 41]", "Assigned class": "fulfilled"}
{"Compound": "COc1cc(F)c([C@@H]2CN(c3ncccc3C(F)(F)F)C(=O)[C@H]2NC(=O)NC2CCc3cc(OC)ccc3C2)c(F)c1 (stereo partly drawn) [Example 64]", "Assigned class": "not fulfilled"}

Request: Hello, is EC50 of the following compound strictly smaller than 2 nM? COc1ccc([C@H]2C[C@@H]2NC(=O)N[C@@H]2C(=O)N(c3ncccc3C(F)(F)F)C[C@H]2c2c(F)cc(OC)cc2F)cc1 [Example 49]
Response: not fulfilled

Request: Hello, is EC50 of the following compound strictly smaller than 2 nM? COCCn1cccc(N2C(=O)[C@@H](NC(=O)NC3CCc4cc(Cl)ccc4C3)[C@H](c3c(F)cc(OC)cc3F)[C@@H]2C)c1=O (stereo partly drawn)
Response: not fulfilled

Request: Hello, is EC50 of the following compound strictly smaller than 2 nM? COc1cc(F)c([C@@H]2CN(c3cccn(CCO)c3=O)C(=O)[C@H]2NC(=O)NC2CCc3cc(Cl)ccc3C2)c(F)c1 (stereo partly drawn) [Example 14]
Response: fulfilled

Request: Hello, is EC50 of the following compound strictly smaller than 2 nM? COc1cc(F)c([C@@H]2CN(c3c(C)ccn(CCO)c3=O)C(=O)[C@H]2NC(=O)NC2CCc3cc(OC)ccc3C2)c(F)c1 (single isomer, unassigned) [Example 84]
Response: fulfilled

Request: Hello, is EC50 of the following compound strictly smaller than 2 nM? "COc1cc(F)c([C@H]2[C@H](NC(=O)N[C@H]3CC[C@H](C(F)F)CC3)C(=O)N(c3ncccc3OC)[C@H]2C)c(F)c1"
Response: not fulfilled

Request: Hello, is EC50 of the following compound strictly smaller than 2 nM? COCCn1cccc(N2C[C@@H](c3c(F)cc(OC)cc3F)[C@H](NC(=O)NC3CCc4cc(Cl)ccc4C3)C2=O)c1=O (stereo partly drawn) [Example 17]
Response: fulfilled

Request: Hello, is EC50 of the following compound strictly smaller than 2 nM? COCCn1cccc(N2C[C@@H](c3ccc(OC)cc3)[C@H](NC(=O)NC3CCc4cc(Cl)ccc4C3)C2=O)c1=O (stereo partly drawn)
Response: not fulfilled

Request: Hello, is EC50 of the following compound strictly smaller than 2 nM? COc1cc(F)c([C@@H]2CN(c3nccc(N4C[C@@H]5C[C@H]4CN5C)c3C(F)(F)F)C(=O)[C@H]2NC(=O)N[C@H]2CC[C@H](C(F)F)CC2)c(F)c1 (single isomer, unassigned) [Example 96]
Response: not fulfilled

###

Please go through the items and note down their pEC50.
target: human FPR1 (Homo sapiens (Human), UniProt P21462); assay: FPR1 cyclic adenosine monophosphate (cAMP) assay; type: cell-based; details: CHO cells overexpressing human FPR1; forskolin 10 μM, IBMX 200 μM; inhibition of cAMP production, HTRF; read-out: hFPR1 cAMP EC50
Numbers only, as −log10 of the molar value.

// below: answered molecules
{"Molecule": "COCCn1cccc(N2C[C@@H](c3c(F)cc(OC)cc3F)[C@H](NC(=O)N[C@H]3CC[C@H](C(F)F)CC3)C2=O)c1=O", "pEC50": 5.92}
{"Molecule": "COc1cc(F)c([C@H]2[C@H](NC(=O)N[C@H]3CC[C@H](C(F)F)CC3)C(=O)N(c3ncccc3OC(C)C)[C@H]2C)c(F)c1", "pEC50": 7.11}
{"Molecule": "COc1cc(F)c([C@@H]2CN(c3cccn(C(F)F)c3=O)C(=O)[C@H]2NC(=O)NC2CCc3cc(OC)ccc3C2)c(F)c1 (single isomer, unassigned) [Example 95]", "pEC50": 8.28}
{"Molecule": "COc1cc(F)c([C@@H]2CN(c3cccn(CCO)c3=O)C(=O)[C@H]2NC(=O)NC2CCc3cc(Cl)ccc3C2)c(F)c1 (stereo partly drawn) [Example 19]", "pEC50": 7.52}

Request: So what does the record say about pEC50 for COc1cc(F)c([C@@H]2CN(c3ncccc3C(F)(F)F)C(=O)[C@H]2NC(=O)NC2CCc3cc(Cl)ccc3C2)c(F)c1 (stereo partly drawn) [Example 43] ?
Response: 8.15

###

target: human FPR1 (Homo sapiens (Human)); experiment: FPR1 cyclic adenosine monophosphate (cAMP) assay; type: cell-based; settings: CHO cells overexpressing human FPR1; forskolin 10 μM, IBMX 200 μM; inhibition of cAMP production, HTRF; read-out: hFPR1 cAMP EC50
Measurement name: pEC50
One number for each entry, as −log10 of the molar value.

{"Compound": "COCCn1cccc(N2C[C@@H](c3c(F)cc(OC)cc3F)[C@H](NC(=O)NC3CCc4cc(OC)ccc4C3)C2=O)c1=O (stereo partly drawn) [Example 53]", "pEC50": 7.61}

Hi there! I need pEC50 for each item below, if you can.
1. COCC(CO)n1cccc(N2C[C@@H](c3c(F)cc(OC)cc3F)[C@H](NC(=O)NC3CCc4cc(OC)ccc4C3)C2=O)c1=O (single isomer, unassigned) [Example 2]
2. COc1cc(F)c([C@@H]2CN(c3ncccc3C(F)(F)F)C(=O)[C@H]2NC(=O)NC2COc3cc(OC)ccc3C2)c(F)c1 (stereo partly drawn) [Example 28]
3. COc1cc(F)c([C@@H]2CN(c3c(C)ccn(CCO)c3=O)C(=O)[C@H]2NC(=O)NC2CCc3cc(OC)ccc3C2)c(F)c1 (single isomer, unassigned) [Example 83]

Response:
[7.40, 8.52, 7.92]

###

molecular target: UniProt P25090; test: FPR2 cyclic adenosine monophosphate (cAMP) assay; format: cell-based; conditions: CHO cells overexpressing human FPR2; forskolin 5 μM, IBMX 200 μM; inhibition of cAMP production, HTRF; read-out: hFPR2 cAMP2 EC50
Sequence (P25090 whole entry): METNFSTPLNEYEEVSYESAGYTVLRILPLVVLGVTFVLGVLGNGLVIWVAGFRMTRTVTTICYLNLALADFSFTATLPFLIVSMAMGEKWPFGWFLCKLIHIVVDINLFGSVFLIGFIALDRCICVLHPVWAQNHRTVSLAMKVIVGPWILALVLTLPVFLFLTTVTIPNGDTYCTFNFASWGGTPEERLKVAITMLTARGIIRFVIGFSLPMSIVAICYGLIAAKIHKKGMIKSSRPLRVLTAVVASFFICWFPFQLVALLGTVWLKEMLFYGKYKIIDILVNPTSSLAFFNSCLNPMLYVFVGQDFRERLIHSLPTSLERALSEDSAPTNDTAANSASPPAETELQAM
Measurement name: EC50 (nM)
Numbers only, in nM.

// below: answered compounds
{"Compound": "COc1cc(F)c([C@@H]2CN(c3ncccc3C(F)(F)F)C(=O)[C@H]2NC(=O)NC2CCc3cc(Cl)ccc3C2)c(F)c1 (stereo partly drawn) [Example 31]", "System tested": "UniProt P25090", "Scale unit": "nM", "EC50": 3.8}
{"Compound": "COc1cc(F)c([C@@H]2CN(c3c(OC)ccn(C)c3=O)C(=O)[C@H]2NC(=O)NC2CCc3cc(OC)ccc3C2)c(F)c1 (stereo partly drawn) [Example 57]", "System tested": "UniProt P25090", "Scale unit": "nM", "EC50": 26}
{"Compound": "COCC(CO)n1cccc(N2C[C@@H](c3c(F)cc(OC)cc3F)[C@H](NC(=O)NC3CCc4cc(OC)ccc4C3)C2=O)c1=O (single isomer, unassigned) [Example 3]", "System tested": "UniProt P25090", "Scale unit": "nM", "EC50": 6}
{"Compound": "COCCn1cccc(N2C[C@@H](c3ccc(OC)cc3)[C@H](NC(=O)NC3CCc4cc(OC)ccc4C3)C2=O)c1=O (stereo partly drawn) [Example 11]", "System tested": "UniProt P25090", "Scale unit": "nM", "EC50": 0.8}
{"Compound": "COCCn1ccc(OC)c(N2C[C@@H](c3c(F)cc(OC)cc3F)[C@H](NC(=O)NC3CCc4cc(OC)ccc4C3)C2=O)c1=O (stereo partly drawn) [Example 50]", "System tested": "UniProt P25090", "Scale unit": "nM", "EC50": 12}

Request: So what does the record say about EC50 for COCCn1ccc(OC)c(N2C[C@@H](c3c(F)cc(OC)cc3F)[C@H](NC(=O)NC3CCc4cc(Cl)ccc4C3)C2=O)c1=O (stereo partly drawn) [Example 38] ?
Response: 4.5

###

molecular target: human FPR1 (Homo sapiens (Human)); assay: FPR1 cyclic adenosine monophosphate (cAMP) assay; type: cell-based; details: read-out: hFPR1 cAMP EC50
Measurement name: pEC50
Answers are plain numbers, as −log10 of the molar value.

Request: So what does the record say about pEC50 for "COc1cc(F)c([C@@H]2CN(c3ncccc3C(F)(F)F)C(=O)[C@H]2NC(=O)N[C@H]2CC[C@H](C(F)F)CC2)c(F)c1" ?
Response: 5.92
